B1: Ankyrin-1, residues 1405 to 1484; numbered along this chain, P16157 (parent)
chain: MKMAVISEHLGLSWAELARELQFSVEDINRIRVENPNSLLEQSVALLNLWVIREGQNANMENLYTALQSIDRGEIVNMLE

- Variants of: B1
- ASSAY_METHOD_TEXT: abundance fitness (aPCA) (normalised: wild type 0, dead -1); higher = more abundant; growth selection in yeast, the domain comes from the species named
- STUDY_CONDITIONS: Homo sapiens
QUANTITY_NAME: abundance fitness
Numbers only.

Use these answered entries as a reference point.
{"columns": ["ITEM_SEQUENCE", "abundance fitness"],
 "data": [
  ["MKMAVISEHLGLSWAELARELQFSVEDINRIRVENPNSLLEQSVALLNLWVIREGQNANMESLYTALQSIDRGEIVNMLE [N62S]", -0.081],
  ["MKMAVISEHLGLSWAELARELQFSVEDINRIRVENPNSLLEQSVALLNLWVIREGQAANMENLYTALQSIDRGEIVNMLE [N57A]", -0.212],
  ["MKMAVISEHLGLSWAELARELQFSVEDINRIRVENPNKLLEQSVALLNLWVIREGQNANMENLYTALQSIDRGEIVNMLE [S38K]", -0.386],
  ["MKMAVISEHLGLSWAELARELQFSVEDINRIRVENPNSLLEQSVALLNLWVIREGQVANMENLYTALQSIDRGEIVNMLE [N57V]", -0.068]
]}

Each variant below has a reported value. Please supply its abundance fitness.
1. MKMAVISEHLGLSWAELARELQFSVEDINRIRVENPNSLLEQSVALLNLWVIREGQNANMENLYTALQSIDRGEIYNMLE [V76Y]
2. MKMAVISEHLGLSWAELARELQFSVEDINRIRVENPNSLLEQDVALLNLWVIREGQNANMENLYTALQSIDRGEIVNMLE [S43D]
3. MKMAVISEHLGLSWAELARELQFSVEDINRIRVENPNSLLEQSVACLNLWVIREGQNANMENLYTALQSIDRGEIVNMLE [L46C]
4. MKMAVISEHLGLSWAELARELQFSVEDINRIRVENPNSLLEQSVALLNLWVIREGQNANMENLYTALQIIDRGEIVNMLE [S69I]
5. MKMAVISEHLGLSWAELARELQFSVEDINRIRVENPNSLLEQSVALLNLWVIREGQNANMENLYTALQSIDRGVIVNMLE [E74V]

Ans.
1: -0.264; 2: -0.503; 3: -0.138; 4: -0.047; 5: -0.839
